# System: HL-60(TB) leukemia
# assay-name: NCI-60 one-dose screen, 48 h
# test-conditions: 10 µM unless noted
Compounds without any hit were thinned out: in the full panel of roughly 83,000, 20% have a hit. Calls of active or inactive are those of the source. The calls were made as follows: active = growth percent below 10; inactive = the rest.
Can you answer with just one of these options? active, inactive

Solved entries (count: 3):
> print(dat)
                                   compound  qualitative.label
1  CCN(C)S(=O)(=O)Nc1cccc(Nc2ncnc3cc(NC(=O)CCl)ccc23)c1Cl             active
2  CC(=O)c1cnc2ccc(-c3cc(Cl)c(O)c(Cl)c3)nc2c1NC1CCC(CN(C)C)CC1 (stereo not given)             active
3  CCOC(=O)c1cc(-c2ccc(OC)cc2)[nH]c1NNC(=O)CCOC           inactive

Exercise: Hello, I am checking results. What call was entered for Nc1nc(N)c2c(n1)NC(c1ccc(F)cc1)C1CCc3ccccc3C1=N2 (stereo not given) ?
Solution: inactive

Exercise: Hello, I am checking results. What call was entered for c1ccc(Nc2nc3c(s2)CCc2c[nH]cc2-3)nc1 ?
Solution: active

Measured values drawn from PubChem BioAssay (NCI) for this set.
